The reported measurements were obtained from PubChem BioAssay AID686970.

Assay: qHTS for induction of synthetic lethality in tumor cells producing 2HG: qHTS for the HT-1080-NT fibrosarcoma cell line;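 note: NT is the 2HG producing partner of a matched IDH1 knockdown line; nearly all actives have a fitted effect of over 55% in size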
Conditions: HT-1080-NT fibrosarcoma viability, CellTiter-Glo ATP luminescence, 48 h; series mostly up to 46.1 µM
The campaign covered roughly 360,000 compounds. About 6,000 (1.7%) were called active. Another 8% or so got no clear call; they are omitted. Calls come from the whole dose curve; as a rule, active = well fitted cell-killing curve with a large enough effect; inconclusive = small, poorly fitted or top-dose-only effect, or effect the other way; inactive = flat fitted curve, though single readings scatter. The entries come from a sample that favours actives as a whole.
Outcome field: choose from 1 = active, 0 = inactive

# example entries with known answers
Brc1ccc2nc(-c3ccccc3)c(Cc3ccccc3)n2c1 ... 0
O=C(Nc1cccc(Cc2ccccc2)c1)Nc1ccc2nc([C@@H]3O[C@H](CO)[C@@H](O)[C@H](O)[C@H]3O)[nH]c2c1 ... 0
CC(=O)C[C@@H]1OC[C@H](CO)N1S(=O)(=O)c1ccc(C)cc1 ... 0

Please state the recorded outcome for this molecule: O=C(CCCN1C(=O)C(c2ccccc2)Oc2cccnc21)Nc1ccccc1Br (stereo not given)
0

Record request — test call for CCCOc1ccc(C(=O)C(CCC(CNCC)C(=O)c2ccc(OCCC)cc2)CNCC)cc1 (stereo not given)
1

So what was the verdict on COc1ccc(-c2sc3ccc(OC)cc3c2C#Cc2ccccn2)cc1 in this test?
0

# outcome recorded in this test, key = COc1ccc(S(=O)(=O)NCCCc2ccccc2)cc1
0

Can you look up the reported call for COc1ccc(C(=O)Nc2cccc(S(C)(=O)=O)c2)cc1 for me?
0

For COc1ccc2sc(-c3ccc(S(C)(=O)=O)cc3)c(C#Cc3cncn3C)c2c1 , which call appears in the assay record?
1

In this assay, the call recorded for CCCCN1C[C@H](c2ccc(Br)cc2)[C@@H](CC(=O)Nc2ccc(Br)cc2)C1=O was what?
0

Kindly provide the recorded test outcome for the following molecule: O=C(CSc1ccc(Cl)cc1)NC1CC1
0

Which result was noted for this molecule in the test: CC1Cc2[nH][nH]c(=O)c2C(C2CC2)O1 (stereo not given)
0

Entry CCN(CC)C(=O)C1=C(C)N(Cc2ccc(F)cc2)C(=O)C(CC(=O)NC2CCCC2)C1 (stereo not given) : call = ?
0

For COc1ccc(NS(=O)(=O)c2ccc(C(=O)Nc3c(C)n(C)n(-c4ccccc4)c3=O)cc2)cc1 , what call appears in the results of this test?
0

Call for entry O=C(NCc1ccc(F)cc1)c1cc(C2CCCCN2C(=O)C2CCCCC2)on1 (stereo not given) :
0

Short answer needed: outcome of this test for CC(C)(C(=O)N1CCC1(C)C(=O)NS(=O)(=O)c1ccc(Br)cc1)c1ccccc1 (stereo not given) ?
0

Recorded call for CNc1cc(-c2c(OC)cccc2OC)ncn1 ?
0

Please share the test call associated with O=C(C[C@H]1C[C@@H]2c3cc(NC(=O)C4CCC4)ccc3O[C@@H]2[C@H](CO)O1)NC1CCCCC1 .
0

I'd appreciate the recorded outcome for COc1cc(CCN=Cc2ccccc2O)c([N+](=O)[O-])cc1OC from this test.
0
